Biological target: T1, human CD81 on CD81-expressing cells (Jurkat E6.1, human PBMC, Ramos) (human, UniProt P60033 1-236)
T1 sequence: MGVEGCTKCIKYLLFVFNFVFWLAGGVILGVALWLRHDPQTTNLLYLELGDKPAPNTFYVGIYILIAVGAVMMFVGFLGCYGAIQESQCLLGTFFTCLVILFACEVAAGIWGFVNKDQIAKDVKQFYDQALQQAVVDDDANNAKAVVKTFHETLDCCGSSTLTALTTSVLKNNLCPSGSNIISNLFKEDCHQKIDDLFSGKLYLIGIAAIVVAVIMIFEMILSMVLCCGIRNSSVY
Test: cell-based or functional assay
result.type: Jurkat chemotaxis (% of control IgG4) at 10 µg/mL (%)
Use % as the unit, but write only the number.

Qu. # return recorded Jurkat chemotaxis (% of control IgG4) at 10 µg/mL for input 001-B06 (antibody, human IgG4 S228P, lambda, V domains shown, IgG4 S228P) VH: EVQLLESGGGLVQPGGSLRLSCAASGFTFSSNYMSWVRQAPGKGLEWVSYISSSSTYTDYADSVKGRFTISRDNSKNTLYLQMNSLRAEDTAVYYCARYSYGRDTFDYWGQGTLVTVSS VL: QSVLTQPFSASGTPGQRVTISCTGSTSNIGAGYDTHWYQQLPGTAPKLLIYGNSNRPSGVPDRFSGSKSGTSASLAISGLRPEDEADYYCQSYDTSLSVWVFGGGTKLTVLG
Ans. 3

Qu. # return recorded Jurkat chemotaxis (% of control IgG4) at 10 µg/mL for input 002-D10 (antibody, human IgG4 S228P, lambda, V domains shown, IgG4 S228P) VH: EVQLLESGGGLVQPGGSLRLSCAASGFTFSSNYMSWVRQAPGKGPEWVSYISSSSTYTDYADSVKGRFTISRDNSKNTLYLQMNSLRAEDTAVYYCARYSYGRDNFDYWGQGTLVTVSS VL: QSVLTQPSSASGTPGQRVTISCTGSTSNIGAGYDTHWYQQLPGTAPKLLIYGNSNRPSGVPDRFSGSKSGTSASLAVSGLRSEDEAEYYCQSYDTNLSGWVFGGGTKLTVLG
Ans. 10

Qu. # return recorded Jurkat chemotaxis (% of control IgG4) at 10 µg/mL for input 002-D03 (antibody, human IgG4 S228P, lambda, V domains shown, IgG4 S228P) VH: EVQLLESGGGLVQPGGSLRLSCAASGFTFRSNYMSWVRQAPGKGLEWVSYISSSSTYTDYADSVKGRFTISRDNSKNTLYLQMNSLRAEDTAVYYCARYSYGRDNFDYWGQGTLVTVSS VL: QSVLTQPPSASGTPGQRVTISCTGSTSNIGAGYDTHWYQQLPGTAPKLLIYGNSNRPSGVPDRFSGSKSGTSASLAISGLRSEDEADYYCQSYDTNLSVWVFGGGTKLTVLG
Ans. 16
